System: MOLM-13 cells
protocol: Cell viability assay (CellTiter-Glo) in MOLM-13 cells, alone or with gilteritinib
Assay type: cell-based
conditionsUsed: Homo sapiens, 72 h; MOLM-13 cells, compound alone (without gilteritinib), three days, CellTiter-Glo; read-out: MOLM-13 IC50
Entries and their IC50 values follow.

O=C1CCC(N2Cc3cc(NC(=O)Cc4cccc(N5CCC(c6ccccc6)CC5)c4)ccc3C2=O)C(=O)N1 (centres unmarked): < 10 nM

Exam item: Query IC50 for O=C(CCn1cc(-c2cnc3ccccc3n2)c(C2CC2)n1)NCc1ccc2c(c1)C(=O)N(C1CCC(=O)NC1=O)C2=O (centres unmarked)
Marked response: > 1000 nM

Exam item: Answer with reported IC50 of O=C1CCC(N2C(=O)c3ccc(NCCNc4cccc(-n5cc(-c6cnc7cccc(Br)c7n6)cn5)c4)cc3C2=O)C(=O)N1 (centres unmarked)
Marked response: 10 to 100 nM

Exam item: Using known records, supply IC50 for O=C1CCC(N2Cc3ccc(CCCCCC(=O)N4CCC(c5ccccc5)CC4)cc3C2=O)C(=O)N1 (centres unmarked)
Marked response: 100 to 1000 nM

Exam item: Return IC50 for the following compound: O=C1CCC(N2Cc3cc(OCCCCCC(=O)N4CCN(c5ccccc5)CC4)ccc3C2=O)C(=O)N1 (centres unmarked)
Marked response: > 1000 nM

Exam item: Please look at this compound and report its IC50: O=C1CCC(N2C(=O)c3ccc(NCCNc4cccc(N5CCC(c6ccccc6)CC5)c4)cc3C2=O)C(=O)N1 (centres unmarked)
Marked response: 10 to 100 nM

Exam item: Please look at this compound and report its IC50: O=C1CCC(N2C(=O)c3ccc(NC[C@H]4C[C@H](n5cc(-c6ccccc6)c(C6CC6)n5)C4)cc3C2=O)C(=O)N1 (some centres unmarked)
Marked response: 100 to 1000 nM

Exam item: State its IC50 for this compound: O=C1CCC(N2C(=O)c3ccc(NCCCc4cccc(N5CCC(c6ccccc6)CC5)c4)cc3C2=O)C(=O)N1 (centres unmarked)
Marked response: 100 to 1000 nM
